- Test system: velvetleaf (Abutilon theophrasti)
- assay_protocol: Test A postemergence, sprayed to runoff
- Format: in vivo
- Parameters: scale not given here
- details: Rate 2000 g/ha, approx. eleven days
parameter: Plant response rating (visual injury vs untreated controls)
A bare number is all that is needed in reply.

# count of solved cases: 3
* CC(C)(C)c1ccn(C2OCN(c3cccc(C(F)(F)F)c3)C2=O)n1 (stereo not shown) [compound 9] | 40
* CC(C)(C)c1ccn(C2SCN(c3cccc(C(F)(F)F)c3)C2=O)n1 (stereo not shown) [Compound 1] | 30
* CC(C)c1ccn(C2OCN(c3cccc(C(F)(F)F)c3)C2=O)n1 (stereo not shown) [Compound 27] | 20

Turning now to a further record.
Fill in: velvetleaf (Abutilon theophrasti) Plant response rating (visual injury vs untreated controls) for CCC(C)c1nn(C2CCN(c3cccc(C(F)(F)F)c3)C2=O)cc1Cl (stereo not shown) [Compound 13] = 0

====

- System: pigweed (Amaranthus retroflexus)
- assay_protocol: Test C preemergence
- Type: in vivo
- details: preemergence, Rate 500 g/ha, visual evaluation after 12 to 14 days
parameter: Plant response rating (0 to 100), Pigweed
A bare number is all that is needed in reply.

The compound CC(C)Oc1cccc(N2CCC(n3ccc(C(C)(C)C)n3)C2=O)c1 (stereo not drawn) showed Plant response rating (0 to 100), Pigweed equal to 100

The compound CCCC(C)c1ccn(C2CCN(c3ccc(Cl)c(OC)c3)C2=O)n1 (stereo not drawn) showed Plant response rating (0 to 100), Pigweed equal to 100

The compound CCOc1cccc(N2CCC(n3ccc(C(C)(C)C)n3)C2=O)c1 (stereo not drawn) showed Plant response rating (0 to 100), Pigweed equal to 100

The compound CCC(CC)c1ccn(C2CCN(c3cccc(OC(C)C)c3)C2=O)n1 (stereo not drawn) showed Plant response rating (0 to 100), Pigweed equal to 90

The compound CC(C)(C)c1ccn(C2CCN(c3ccc(F)c(Br)c3)C2=O)n1 (stereo not drawn) showed Plant response rating (0 to 100), Pigweed equal to 100

The compound CC1(c2ccn(C3SCN(c4cccc(C(F)(F)F)c4)C3=O)n2)CC1 (stereo not drawn) showed Plant response rating (0 to 100), Pigweed equal to 100

====

- Test system: smallflower flatsedge (Cyperus difformis)
- assay_protocol: Test C flooded paddy test
- Type: in vivo
- details: Flooded Paddy; Rate 250 g/ha; scale 0 to 100, 0 no effect, 100 complete control
- Description: At the same time, plants selected from these crop and weed species and also winter barley (Hordeum vulgare), blackgrass (Alopecurus myosuroides), canary grass (Phalaris minor), chickweed (Stellaria media), downy brome (Bromus tectorum), green foxtail (Setaria viridis), Italian ryegrass (Lolium multiflorum), wheat (Triticum aestivum), wild oat (Avena fatua) and windgrass (Apera spica-venti) were treated with postemergence applications of some of the test chemicals formulated in the same manner. […]
parameter: Flatsedge plant response rating
A bare number is all that is needed in reply.

- O=C1C(n2ccc(C3CCCCC3)n2)SCN1c1cccc(C(F)(F)F)c1 (centres unmarked): 100
- COC(=O)c1cccc(N2CCC(n3ccc(C(C)(C)C)n3)C2=O)c1 (centres unmarked): 100
- O=C1C(n2ccc(C3CCC3)n2)SCN1c1cccc(C(F)(F)F)c1 (centres unmarked): 100
- CC(C)Oc1cccc(N2CCC(n3ccc(C(C)C)n3)C2=O)c1 (centres unmarked): 90

Turning now to a further record.
The compound CCC(CC)c1ccn(C2OCN(c3cccc(OC(F)(F)F)c3)C2=O)n1 (centres unmarked) showed Flatsedge plant response rating equal to 100

====

- Test system: barnyardgrass (Echinochloa crus-galli)
- assay_protocol: Test B postemergence
- Format: in vivo
- details: Rate 500 g/ha, scale 0 (no effect) to 100 (complete control), 13 to 15 days
- Procedure: […] At the same time, plants selected from these crop and weed species and also blackgrass (Alopecurus myosuroides), wheat (Triticum aestivum) and wild oat (Avena fatua) were treated with postemergence applications of test chemicals formulated in the same manner. […] Treated plants and controls were maintained in a greenhouse for 13 to 15 days, after which time all species were compared to controls and visually evaluated. […]
Plant response rating, Barnyardgrass: recorded values

# count of solved cases: 3
• CCC(C)c1ccn(C2CCN(c3ccc(F)c(C(F)(F)F)c3)C2=O)n1 (stereo not drawn) [Compound 145] = 90
• COc1cc(C)nc(N2CCC(n3ccc(C(C)(C)C)n3)C2=O)n1 (stereo not drawn) [Compound 137] = 0
• COc1cc(N2CCC(n3ccc(C(C)C)n3)C2=O)ccc1Br (stereo not drawn) [Compound 140] = 80

The compound CCC(CC)c1ccn(C2CCN(c3ccc(F)c(C(F)(F)F)c3)C2=O)n1 (stereo not drawn) [Compound 144] showed Plant response rating, Barnyardgrass equal to 0

The compound CCC(C)c1ccn(C2CCN(c3ccc(Br)c(OC)c3)C2=O)n1 (stereo not drawn) [Compound 142] showed Plant response rating, Barnyardgrass equal to 60

The compound CC(C)(C)c1ccn(C2CCN(c3ccc(F)c(C(F)(F)F)c3)C2=O)n1 (stereo not drawn) [Compound 146] showed Plant response rating, Barnyardgrass equal to 90

====

- Test system: goosegrass (Eleusine indica)
- assay_protocol: Test C preemergence
- Format: in vivo
- details: preemergence, Rate 250 g/ha, visual evaluation after 12 to 14 days
Plant response rating (0 to 100), Goosegrass: recorded values
A bare number is all that is needed in reply.

# count of solved cases: 10
• CCC(CC)c1ccn(C2SCN(c3cccc(C(F)(F)F)c3)C2=O)n1 (stereo not shown) [Compound 25] = 100
• CC(C)(C)c1ccn(C2CCN(c3ccc(F)c(Br)c3)C2=O)n1 (stereo not shown) [Compound 75] = 100
• CC(C)(C)c1ccn(C2SCN(c3cccc(OC(F)(F)F)c3)C2=O)n1 (stereo not shown) [Compound 30] = 100
• CC(C)c1ccn(C2OCN(c3cccc(C(F)(F)F)c3)C2=O)n1 (stereo not shown) [Compound 27] = 100
• CC(C)c1ccn(C2SCN(c3cccc(OC(F)F)c3)C2=O)n1 (stereo not shown) [Compound 44] = 100
• O=C1C(n2ccc(C3CC3)n2)OCN1c1cccc(C(F)(F)F)c1 (stereo not shown) [Compound 28] = 100
• CC(C)(C)c1ccn(C2CCN(c3cccc(C(F)(F)F)c3)C2=S)n1 (stereo not shown) [Compound 22] = 100
• O=C1C(n2ccc(C3CC3)n2)CCN1c1cccc(C(F)(F)F)c1 (stereo not shown) [Compound 8] = 90
• O=C1C(n2ccc(C3CCCCC3)n2)OCN1c1cccc(C(F)(F)F)c1 (stereo not shown) [Compound 51] = 100
• CC(C)(C)c1ccn(C2CCN(c3ccc(Cl)c(Br)c3)C2=O)n1 (stereo not shown) [Compound 56] = 90

Fill in: goosegrass (Eleusine indica) Plant response rating (0 to 100), Goosegrass for CC(C)c1ccn(C2SCN(c3cccc(OC(F)(F)F)c3)C2=O)n1 (stereo not shown) [Compound 31] = 100

Fill in: goosegrass (Eleusine indica) Plant response rating (0 to 100), Goosegrass for CCC(CC)c1ccn(C2CCN(c3ccc(C)c(OC)c3)C2=O)n1 (stereo not shown) [Compound 81] = 100

Fill in: goosegrass (Eleusine indica) Plant response rating (0 to 100), Goosegrass for COc1cc(N2CCC(n3ccc(C(C)C)n3)C2=O)ccc1C (stereo not shown) [Compound 85] = 100

====

- Test system: johnsongrass (Sorghum halepense)
- assay_protocol: Test C preemergence
- Assay type: in vivo
- details: Preemergence; Rate 500 g/ha; scale 0 to 100
- Source text: […]
Plant response rating, Johnsongrass: recorded values
A bare number is all that is needed in reply.

# count of solved cases: 2
* O=C1C(n2ccc(C3CCC3)n2)OCN1c1cccc(C(F)(F)F)c1 (stereo not shown) [Compound 39] | 90
* CC(C)c1ccn(C2SCN(c3cccc(OC(F)(F)F)c3)C2=O)n1 (stereo not shown) [Compound 31] | 100

The compound CCC(C)c1ccn(C2SCN(c3cccc(OC(F)(F)F)c3)C2=O)n1 (stereo not shown) [Compound 32] showed Plant response rating, Johnsongrass equal to 90

The compound CCC(CC)c1ccn(C2SCN(c3cccc(C(F)(F)F)c3)C2=O)n1 (stereo not shown) [Compound 25] showed Plant response rating, Johnsongrass equal to 100

====

- System: Surinam grass (Brachiaria decumbens)
- assay_protocol: Test B preemergence
- Assay type: in vivo
- details: preemergence; Rate 125 g/ha; scale of 0 to 100 where 0 is no effect and 100 is complete control; 13 to 15 days
Plant response rating, Surinam grass: recorded values
A bare number is all that is needed in reply.

# count of solved cases: 5
- CCCC(C)c1ccn(C2OCN(c3cccc(OC(F)(F)F)c3)C2=O)n1 (stereo not drawn) [Compound 91]: 70
- CCCCC(C)c1ccn(C2OCN(c3cccc(C(F)(F)F)c3)C2=O)n1 (stereo not drawn) [Compound 98]: 0
- Cc1ccc(N2CCC(n3ccc(C(C)(C)C)n3)C2=O)cc1OC(C)C (stereo not drawn) [Compound 110]: 0
- CCCC(C)c1ccn(C2CCN(c3cccc(C(F)(F)F)c3)C2=O)n1 (stereo not drawn) [Compound 100]: 0
- Cc1cc(N2CCC(n3ccc(C(C)(C)C)n3)C2=O)cc(Br)c1C (stereo not drawn) [Compound 77]: 0

The molecule CC1(c2ccn(C3OCN(c4cccc(C(F)(F)F)c4)C3=O)n2)CC1 (stereo not drawn) [Compound 62] showed Plant response rating, Surinam grass equal to 0

The molecule Cc1ccnc(N2CCC(n3ccc(C(C)(C)C)n3)C2=O)c1 (stereo not drawn) [Compound 139] showed Plant response rating, Surinam grass equal to 0

The molecule CCCCC(CCCC)c1ccn(C2OCN(c3cccc(OC(F)(F)F)c3)C2=O)n1 (stereo not drawn) [Compound 113] showed Plant response rating, Surinam grass equal to 0
